# key: entry, value: Lipid Concentration-induced 50% Peptide Binding, POPC Vesicle
EXPERIMENT NOTES: Tryptophan fluorescent binding assay, POPC vesicles
TEST PARAMETERS: 50 μM peptide, PBS pH 7.4, lipid per peptide
The answer is to be given in L/P; state only the numeric part.

Consider the reported Lipid Concentration-induced 50% Peptide Binding, POPC Vesicle for these compounds:
# SAMPLE SMILES, MEASUREMENT UNITS, MEASURED
records = [
    ("CC(C)C[C@H](NC(=O)CN)C(=O)N[C@@H](CC(C)C)C(=O)N[C@@H](CC(=O)O)C(=O)N[C@@H](CC(C)C)C(=O)N[C@@H](CC(C)C)C(=O)N[C@@H](CCC(=O)O)C(=O)N[C@@H](CC(C)C)C(=O)N[C@@H](CC(C)C)C(=O)N[C@@H](CC(C)C)C(=O)N[C@@H](CCC(=O)O)C(=O)N[C@@H](C)C(=O)N[C@@H](C)C(=O)NCC(=O)N[C@@H](Cc1c[nH]c2ccccc12)C(N)=O", "L/P", 0.63),
    ("CC(C)C[C@H](NC(=O)CN)C(=O)N[C@@H](CC(C)C)C(=O)N[C@@H](Cc1c[nH]cn1)C(=O)N[C@@H](CC(C)C)C(=O)N[C@@H](CC(C)C)C(=O)N[C@@H](Cc1c[nH]cn1)C(=O)N[C@@H](CC(C)C)C(=O)N[C@@H](CC(C)C)C(=O)N[C@@H](CC(C)C)C(=O)N[C@@H](CCC(=O)O)C(=O)N[C@@H](C)C(=O)N[C@@H](C)C(=O)NCC(=O)N[C@@H](Cc1c[nH]c2ccccc12)C(N)=O", "L/P", 1.00),
]

## Input Please give the measured Lipid Concentration-induced 50% Peptide Binding, POPC Vesicle for this compound: "CC(C)C[C@H](NC(=O)CN)C(=O)N[C@@H](CC(C)C)C(=O)N[C@@H](CCCCN)C(=O)N[C@@H](CC(C)C)C(=O)N[C@@H](CC(C)C)C(=O)N[C@@H](CCC(=O)O)C(=O)N[C@@H](CC(C)C)C(=O)N[C@@H](CC(C)C)C(=O)N[C@@H](CC(C)C)C(=O)N[C@@H](CCCCN)C(=O)N[C@@H](C)C(=O)N[C@@H](C)C(=O)NCC(=O)N[C@@H](Cc1c[nH]c2ccccc12)C(N)=O"
## Output 0.47

* * *

EXPERIMENT NOTES: Tryptophan fluorescent binding assay, POPC vesicles
TEST PARAMETERS: 50 μM peptide, PBS pH 7.4, lipid per peptide
Answer 0.0 if Lipid Concentration-induced 50% Peptide Binding, POPC Vesicle is under 0.5 L/P, and 1.0 if it is 0.5 L/P or more.

# MOLECULE, ASSIGNED CLASS
data = [
    ("CC(C)C[C@H](NC(=O)CN)C(=O)N[C@@H](CC(C)C)C(=O)N[C@@H](CC(=O)O)C(=O)N[C@@H](CC(C)C)C(=O)N[C@@H](CC(C)C)C(=O)N[C@@H](CCCCN)C(=O)N[C@@H](CC(C)C)C(=O)N[C@@H](CC(C)C)C(=O)N[C@@H](CC(C)C)C(=O)N[C@@H](CCC(=O)O)C(=O)N[C@@H](C)C(=O)N[C@@H](C)C(=O)NCC(=O)N[C@@H](Cc1c[nH]c2ccccc12)C(N)=O [DKE]", 1.0),
    ("CC(C)C[C@H](NC(=O)CN)C(=O)N[C@@H](CC(C)C)C(=O)N[C@@H](CC(=O)O)C(=O)N[C@@H](CC(C)C)C(=O)N[C@@H](CC(C)C)C(=O)N[C@@H](Cc1c[nH]cn1)C(=O)N[C@@H](CC(C)C)C(=O)N[C@@H](CC(C)C)C(=O)N[C@@H](CC(C)C)C(=O)N[C@@H](CCCCN)C(=O)N[C@@H](C)C(=O)N[C@@H](C)C(=O)NCC(=O)N[C@@H](Cc1c[nH]c2ccccc12)C(N)=O [DHK]", 0.0),
    ("CC(C)C[C@H](NC(=O)CN)C(=O)N[C@@H](CC(C)C)C(=O)N[C@@H](CCCCN)C(=O)N[C@@H](CC(C)C)C(=O)N[C@@H](CC(C)C)C(=O)N[C@@H](CCCCN)C(=O)N[C@@H](CC(C)C)C(=O)N[C@@H](CC(C)C)C(=O)N[C@@H](CC(C)C)C(=O)N[C@@H](CCC(=O)O)C(=O)N[C@@H](C)C(=O)N[C@@H](C)C(=O)NCC(=O)N[C@@H](Cc1c[nH]c2ccccc12)C(N)=O [KKE]", 0.0),
]

## Input Form field: Lipid Concentration-induced 50% Peptide Binding, POPC Vesicle at least 0.5 L/P? Entry: CC(C)C[C@H](NC(=O)CN)C(=O)N[C@@H](CC(C)C)C(=O)N[C@@H](CCC(=O)O)C(=O)N[C@@H](CC(C)C)C(=O)N[C@@H](CC(C)C)C(=O)N[C@@H](CCC(=O)O)C(=O)N[C@@H](CC(C)C)C(=O)N[C@@H](CC(C)C)C(=O)N[C@@H](CC(C)C)C(=O)N[C@@H](CCC(=O)O)C(=O)N[C@@H](C)C(=O)N[C@@H](C)C(=O)NCC(=O)N[C@@H](Cc1c[nH]c2ccccc12)C(N)=O [EEE]
## Output 1.0

## Input Also CC(C)C[C@H](NC(=O)CN)C(=O)N[C@@H](CC(C)C)C(=O)N[C@@H](Cc1c[nH]cn1)C(=O)N[C@@H](CC(C)C)C(=O)N[C@@H](CC(C)C)C(=O)N[C@@H](CCC(=O)O)C(=O)N[C@@H](CC(C)C)C(=O)N[C@@H](CC(C)C)C(=O)N[C@@H](CC(C)C)C(=O)N[C@@H](CCCCN)C(=O)N[C@@H](C)C(=O)N[C@@H](C)C(=O)NCC(=O)N[C@@H](Cc1c[nH]c2ccccc12)C(N)=O [HEK] , if possible.
## Output 0.0

* * *

# key: entry, value: Lipid Concentration-induced 50% Peptide Binding, 3POPC/1POPG Vesicle
EXPERIMENT NOTES: Tryptophan fluorescent binding assay, 3POPC/1POPG vesicles
TEST PARAMETERS: 50 μM peptide, PBS pH 7.4, lipid per peptide
The answer is to be given in L/P; state only the numeric part.

# SAMPLE SMILES, MEASURED
records = [
    ("CC(C)C[C@H](NC(=O)CN)C(=O)N[C@@H](CC(C)C)C(=O)N[C@@H](CCCCN)C(=O)N[C@@H](CC(C)C)C(=O)N[C@@H](CC(C)C)C(=O)N[C@@H](CCCCN)C(=O)N[C@@H](CC(C)C)C(=O)N[C@@H](CC(C)C)C(=O)N[C@@H](CC(C)C)C(=O)N[C@@H](CCCCN)C(=O)N[C@@H](C)C(=O)N[C@@H](C)C(=O)NCC(=O)N[C@@H](Cc1c[nH]c2ccccc12)C(N)=O", 1.70),
    ("CC(C)C[C@H](NC(=O)CN)C(=O)N[C@@H](CC(C)C)C(=O)N[C@@H](CCC(=O)O)C(=O)N[C@@H](CC(C)C)C(=O)N[C@@H](CC(C)C)C(=O)N[C@@H](CCC(=O)O)C(=O)N[C@@H](CC(C)C)C(=O)N[C@@H](CC(C)C)C(=O)N[C@@H](CC(C)C)C(=O)N[C@@H](CCCCN)C(=O)N[C@@H](C)C(=O)N[C@@H](C)C(=O)NCC(=O)N[C@@H](Cc1c[nH]c2ccccc12)C(N)=O", 4.50),
    ("CC(C)C[C@H](NC(=O)CN)C(=O)N[C@@H](CC(C)C)C(=O)N[C@@H](CC(=O)O)C(=O)N[C@@H](CC(C)C)C(=O)N[C@@H](CC(C)C)C(=O)N[C@@H](CCC(=O)O)C(=O)N[C@@H](CC(C)C)C(=O)N[C@@H](CC(C)C)C(=O)N[C@@H](CC(C)C)C(=O)N[C@@H](CCC(=O)O)C(=O)N[C@@H](C)C(=O)N[C@@H](C)C(=O)NCC(=O)N[C@@H](Cc1c[nH]c2ccccc12)C(N)=O", 0.38),
]

Shift focus to the following entry.
## Input Please give the measured Lipid Concentration-induced 50% Peptide Binding, 3POPC/1POPG Vesicle for this molecule: "CC(C)C[C@H](NC(=O)CN)C(=O)N[C@@H](CC(C)C)C(=O)N[C@@H](Cc1c[nH]cn1)C(=O)N[C@@H](CC(C)C)C(=O)N[C@@H](CC(C)C)C(=O)N[C@@H](CCC(=O)O)C(=O)N[C@@H](CC(C)C)C(=O)N[C@@H](CC(C)C)C(=O)N[C@@H](CC(C)C)C(=O)N[C@@H](CCCCN)C(=O)N[C@@H](C)C(=O)N[C@@H](C)C(=O)NCC(=O)N[C@@H](Cc1c[nH]c2ccccc12)C(N)=O"
## Output 0.46
